Overview of reported PBM binding z-score across a group of sequences:
Test system: LXRa:RXRa (NR concentration 270 nM, RXRa partner concentration 90 nM)
ASSAY METHOD TEXT: PBM binding z-score (relative to random genomic background probes); higher = stronger binding; sequences stand for … in GC…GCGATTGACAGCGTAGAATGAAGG
Give a plain numeric answer without units written out.

Reference set, count: 4
INSERT INTO measurements (monomer_sequence, metric, recorded_result) VALUES
  ('TGAATGAGTTTAAAGATCAGGGAACGTGGCGTCG', 'PBM binding z-score', 0.111),
  ('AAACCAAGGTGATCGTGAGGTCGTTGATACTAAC', 'PBM binding z-score', 1.29),
  ('CCTATTAGTTGACCATAAGTGCAACCGAAGCTCG', 'PBM binding z-score', 0.833),
  ('AGTCAAAGTTCAGGACGAGGTAACGGAAAGCACG', 'PBM binding z-score', 3.93);

Data point: CGAACTAGGTCACGGACAGTGAATCTCCGCACGC ; PBM binding z-score = 3.34

Entry ATTATTAGTTGACTTAGGGCAACCGATACGACGC , PBM binding z-score reported as 0.64

Reported PBM binding z-score for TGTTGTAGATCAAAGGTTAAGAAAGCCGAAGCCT was 2.17

For reference, reported PBM binding z-score for TCTTGTAGATCAAGCAGGTTAAGAATGCCTGAGT stands at 0.304

# PBM binding z-score of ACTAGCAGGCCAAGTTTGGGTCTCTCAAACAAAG = -0.825

Record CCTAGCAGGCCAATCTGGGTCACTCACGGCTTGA . Reported PBM binding z-score: 1.17

// recorded PBM binding z-score for GGAACGAGTGCAAGTTGATAGCAGAGTTTGATGG : -0.282

Note to self: PBM binding z-score recorded for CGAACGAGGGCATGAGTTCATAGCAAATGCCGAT was 2.23

Origin of measurements: the supplement of paper PMC6555819
